Data origin, for the record: paper PMC8280112

Target: Human CGT (Homo sapiens, UniProt Q16880)
Construct: crude M-PER lysate
Sequence (Q16880 21-541): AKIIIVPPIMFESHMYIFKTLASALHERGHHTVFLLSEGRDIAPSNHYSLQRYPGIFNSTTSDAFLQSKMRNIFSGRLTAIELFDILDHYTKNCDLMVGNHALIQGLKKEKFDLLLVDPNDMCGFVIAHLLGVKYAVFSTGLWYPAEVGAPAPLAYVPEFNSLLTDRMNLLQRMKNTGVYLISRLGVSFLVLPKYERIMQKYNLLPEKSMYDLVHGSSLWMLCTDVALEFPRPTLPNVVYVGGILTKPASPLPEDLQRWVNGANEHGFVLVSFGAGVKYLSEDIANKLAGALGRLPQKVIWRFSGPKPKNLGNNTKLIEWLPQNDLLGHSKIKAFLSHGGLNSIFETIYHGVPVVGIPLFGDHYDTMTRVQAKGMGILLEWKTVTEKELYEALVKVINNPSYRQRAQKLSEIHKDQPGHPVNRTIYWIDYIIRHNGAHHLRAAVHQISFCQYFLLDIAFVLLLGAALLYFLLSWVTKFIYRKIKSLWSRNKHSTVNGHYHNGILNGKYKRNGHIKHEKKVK
Assay: CGT enzyme assay (cell-lysate assay)
Details: lysate of CHO cells expressing human UGT8
Property: pIC50; scope: individual compounds
pIC50 here: minus log base 10 of the concentration, concentration in moles per litre.

| Compound | Test Target | Measurement |
| --- | --- | --- |
| C[C@H]1N(c2ccc(Br)cc2)C(=O)N(c2ccc(Br)cc2)C1(O)c1cccc(OC(F)(F)F)c1 (some centres unmarked) | Human CGT (Homo sapiens, UniProt Q16880) | 7.82 |

# ---- query compound ----
Any idea what its pIC50 is? The compound is O=C1N(c2ccc(Br)cc2)C(=O)C(O)(c2ccccc2)N1c1ccc(Br)cc1 (centres unmarked)
4.64

###

Assay: Mouse pharmacokinetics and brain concentration
Type: in vivo
Conditions: C57BL/6 mice, single 20 mg/kg IP injection, plasma
Experimental Readout: Tmax (h)
Numbers only; they are read as h.

Any idea what its Tmax is? The compound is C[C@H]1N(c2ccc(Br)cc2)C(=O)N(c2ccc(Br)cc2)C1(O)c1cccc(OC(F)(F)F)c1 (stereo partly shown) [S202]
1

###

Target: Glucosylceramide synthase (GCS) (Canis lupus familiaris, UniProt A0A8I3MXG6)
Construct: endogenous in cells
Sequence (A0A8I3MXG6 1-394): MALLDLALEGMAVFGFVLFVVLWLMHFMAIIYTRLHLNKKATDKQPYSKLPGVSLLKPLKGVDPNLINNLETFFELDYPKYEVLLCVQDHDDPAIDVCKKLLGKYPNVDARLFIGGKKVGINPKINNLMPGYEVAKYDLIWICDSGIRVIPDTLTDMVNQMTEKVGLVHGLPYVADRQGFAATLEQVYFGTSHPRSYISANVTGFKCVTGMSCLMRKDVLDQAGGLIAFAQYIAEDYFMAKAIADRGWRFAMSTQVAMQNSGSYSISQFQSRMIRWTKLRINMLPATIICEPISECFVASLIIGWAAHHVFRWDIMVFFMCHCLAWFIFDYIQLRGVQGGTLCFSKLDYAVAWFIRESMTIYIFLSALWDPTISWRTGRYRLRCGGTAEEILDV
Experiment: Glucosylceramide synthase assay
Conditions: MDCK cell lysate
Experimental Readout: IC50

What measured IC50 is associated with C[C@H]1N(c2ccc(Br)cc2)C(=O)N(c2ccc(Br)cc2)C1(O)c1cccc(OC(F)(F)F)c1 (stereo partly shown) on Glucosylceramide synthase (GCS) (Canis lupus familiaris, UniProt A0A8I3MXG6)?
> 50 µM

###

Assay: Mouse pharmacokinetics and brain concentration
Type: in vivo
Settings: C57BL/6 mice, single 20 mg/kg IP injection, plasma
Experimental Readout: Cmax (ng/mL)
Numbers only; they are read as ng/mL.

Any idea what its Cmax is? The compound is C[C@H]1N(c2ccc(Br)cc2)C(=O)N(c2ccc(Br)cc2)C1(O)c1cccc(OC(F)(F)F)c1 (stereo partly shown)
8500

###

Biological target: Recombinant human glucosylceramidase (GBA1) (Homo sapiens)
Sequence (P04062 40-536): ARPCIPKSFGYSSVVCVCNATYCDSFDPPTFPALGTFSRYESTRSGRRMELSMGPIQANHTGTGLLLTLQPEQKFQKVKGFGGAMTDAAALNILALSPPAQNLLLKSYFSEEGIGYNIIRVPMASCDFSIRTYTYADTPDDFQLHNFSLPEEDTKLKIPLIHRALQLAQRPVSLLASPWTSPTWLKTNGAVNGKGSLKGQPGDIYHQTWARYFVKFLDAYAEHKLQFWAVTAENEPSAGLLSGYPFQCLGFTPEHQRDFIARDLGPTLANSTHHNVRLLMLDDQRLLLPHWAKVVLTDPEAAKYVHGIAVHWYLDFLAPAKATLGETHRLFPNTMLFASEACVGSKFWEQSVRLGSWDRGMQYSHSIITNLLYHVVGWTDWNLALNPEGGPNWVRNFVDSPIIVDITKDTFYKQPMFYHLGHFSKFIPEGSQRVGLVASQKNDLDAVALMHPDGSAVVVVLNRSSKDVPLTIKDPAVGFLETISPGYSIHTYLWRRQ
Test: Beta-glucocerebrosidase assay
pIC50: −log10 of the molar value.
Experimental Readout: pIC50

What measured pIC50 is associated with C[C@H]1N(c2ccc(Br)cc2)C(=O)N(c2ccc(Br)cc2)C1(O)c1cccc(OC(F)(F)F)c1 (stereo partly shown) on Recombinant human glucosylceramidase (GBA1) (Homo sapiens)?
< 4.30

###

Biological target: rhARSA (Homo sapiens)
Construct: purchased R&D systems
Sequence (P15289 19-507): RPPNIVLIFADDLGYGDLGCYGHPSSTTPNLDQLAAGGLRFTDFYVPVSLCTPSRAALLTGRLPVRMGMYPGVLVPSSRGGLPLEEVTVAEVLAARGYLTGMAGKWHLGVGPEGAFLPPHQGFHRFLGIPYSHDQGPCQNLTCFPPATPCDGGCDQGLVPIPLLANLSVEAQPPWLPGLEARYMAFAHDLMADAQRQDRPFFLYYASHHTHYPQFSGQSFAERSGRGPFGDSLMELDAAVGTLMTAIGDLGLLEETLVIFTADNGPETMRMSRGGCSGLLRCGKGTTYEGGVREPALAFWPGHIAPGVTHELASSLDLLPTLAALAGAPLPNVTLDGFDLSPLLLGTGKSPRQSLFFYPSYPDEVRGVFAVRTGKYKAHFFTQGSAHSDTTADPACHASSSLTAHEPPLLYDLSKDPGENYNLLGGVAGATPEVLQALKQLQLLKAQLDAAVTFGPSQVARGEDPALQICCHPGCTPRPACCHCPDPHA
Test: Arylsulfatase A assay
Assay type: biochemical
Conditions: read-out: ARSA IC50
pIC50: −log10 of the molar value.
Experimental Readout: pIC50

Any idea what its pIC50 is? The compound is C[C@H]1N(c2ccc(Br)cc2)C(=O)N(c2ccc(Br)cc2)C1(O)c1cccc(OC(F)(F)F)c1 (stereo partly shown) [S202]
< 4.30

###

Target: Cerebroside sulfotransferase (CST) (Homo sapiens, UniProt Q99999)
Construct: made in house; host or cells: CHO cells stably expressing GAL3ST1 cDNA; MPER lysate
Sequence (Q99999 1-423): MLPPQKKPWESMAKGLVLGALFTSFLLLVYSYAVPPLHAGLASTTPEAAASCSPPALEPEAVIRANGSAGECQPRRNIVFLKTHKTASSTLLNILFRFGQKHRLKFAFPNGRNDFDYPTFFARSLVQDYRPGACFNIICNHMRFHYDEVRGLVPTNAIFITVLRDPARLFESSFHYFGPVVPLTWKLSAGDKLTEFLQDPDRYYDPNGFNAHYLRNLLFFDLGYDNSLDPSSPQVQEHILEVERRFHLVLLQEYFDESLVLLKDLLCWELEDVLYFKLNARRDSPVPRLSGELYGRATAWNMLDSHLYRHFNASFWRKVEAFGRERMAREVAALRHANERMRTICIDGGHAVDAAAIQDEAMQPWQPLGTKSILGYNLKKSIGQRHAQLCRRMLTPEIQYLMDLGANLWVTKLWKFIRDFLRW
Experiment: Cerebroside sulfotransferase assay
Assay type: biochemical
Conditions: lysate of CHO cells expressing GAL3ST1
pIC50: −log10 of the molar value.
Experimental Readout: pIC50

Any idea what its pIC50 is? The compound is C[C@H]1N(c2ccc(Br)cc2)C(=O)N(c2ccc(Br)cc2)C1(O)c1cccc(OC(F)(F)F)c1 (stereo partly shown) [S202]
< 4.30
